- experimentSummary: Pharmacokinetics of three single doses of sublingual testosterone solution in healthy premenopausal women
- testConditions: female, human, in vivo, 0.75 mg, MRT, free testosterone, serum; 0.75 mg sublingual; mean ± SD
- Experimental: All 16 subjects received each investigational drug dose once in random order. Wash-out between treatments was at least 48 h. Subjects had serial blood samples drawn via an intravenous catheter. Pharmacokinetic parameters were monitored at baseline and (at 2, 4, 6, 8, 10, 20, 30, 60, 90, 120, 180, 230 min) after dosing. Blood samples in the placebo condition were only measured at −5, 10, 60 and 230 min. […] The pharmacokinetic parameters were analyzed using the WinNonlin software (version 5.1). […]

compound: C[C@]12CC[C@H]3[C@@H](CCC4=CC(=O)CC[C@@]43C)[C@@H]1CC[C@@H]2O [Testosterone, testosterone]
MRT (min): 51.4

###

- experimentSummary: Pharmacokinetics of three single doses of sublingual testosterone solution in healthy premenopausal women
- testConditions: female, human, in vivo, 0.5 mg, Baseline corrected AUC 0-230, free testosterone, serum; 0.50 mg sublingual; geometric mean (% CV)

compoundStructure: C[C@]12CC[C@H]3[C@@H](CCC4=CC(=O)CC[C@@]43C)[C@@H]1CC[C@@H]2O
AUC(0-t): 0.0252 ng·h/mL

###

- experimentSummary: Pharmacokinetics of three single doses of sublingual testosterone solution in healthy premenopausal women
- testConditions: female, human, in vivo, 0.25 mg, Tmax, free testosterone, serum; 0.25 mg sublingual; mean ± SD

compoundStructure: C[C@]12CC[C@H]3[C@@H](CCC4=CC(=O)CC[C@@]43C)[C@@H]1CC[C@@H]2O
Tmax / min: 15.6

###

- experimentSummary: Pharmacokinetics of three single doses of sublingual testosterone solution in healthy premenopausal women
- testConditions: female, human, in vivo, 0.75 mg, Cmax, total testosterone, serum; 0.75 mg sublingual; geometric mean (% CV)

compoundStructure: C[C@]12CC[C@H]3[C@@H](CCC4=CC(=O)CC[C@@]43C)[C@@H]1CC[C@@H]2O
Cmax: 6.73 ng/mL

###

- experimentSummary: Pharmacokinetics of three single doses of sublingual testosterone solution in healthy premenopausal women
- testConditions: female, human, in vivo, 0.25 mg, MRT, free testosterone, serum; 0.25 mg sublingual; mean ± SD

compoundStructure: C[C@]12CC[C@H]3[C@@H](CCC4=CC(=O)CC[C@@]43C)[C@@H]1CC[C@@H]2O
MRT / min: 52.6

###

- experimentSummary: Pharmacokinetics of three single doses of sublingual testosterone solution in healthy premenopausal women
- testConditions: female, human, in vivo, 0.5 mg, t1/2, free testosterone, serum; 0.50 mg sublingual; mean ± SD
observationType: half-life (min)

compoundStructure: C[C@]12CC[C@H]3[C@@H](CCC4=CC(=O)CC[C@@]43C)[C@@H]1CC[C@@H]2O
observationType: half-life
val: 55.7

###

- experimentSummary: Pharmacokinetics of three single doses of sublingual testosterone solution in healthy premenopausal women
- testConditions: female, human, in vivo, 0.75 mg, Cmax, free testosterone, serum; 0.75 mg sublingual; geometric mean (% CV)

compoundStructure: C[C@]12CC[C@H]3[C@@H](CCC4=CC(=O)CC[C@@]43C)[C@@H]1CC[C@@H]2O
Cmax [ng/mL]: 0.043

###

- experimentSummary: Pharmacokinetics of three single doses of sublingual testosterone solution in healthy premenopausal women
- testConditions: female, human, in vivo, 0.25 mg, Baseline corrected AUC 0-230, total testosterone, serum; 0.25 mg sublingual; geometric mean (% CV)

compoundStructure: C[C@]12CC[C@H]3[C@@H](CCC4=CC(=O)CC[C@@]43C)[C@@H]1CC[C@@H]2O
AUC(0-t), ng·h/mL: 3.23

###

- experimentSummary: Pharmacokinetics of three single doses of sublingual testosterone solution in healthy premenopausal women
- testConditions: female, human, in vivo, 0.75 mg, t1/2, total testosterone, serum; 0.75 mg sublingual; mean ± SD
observationType: half-life (min)

compound: C[C@]12CC[C@H]3[C@@H](CCC4=CC(=O)CC[C@@]43C)[C@@H]1CC[C@@H]2O [Testosterone, testosterone]
unitsSymbol: min
val: 58.5

###

- experimentSummary: Pharmacokinetics of three single doses of sublingual testosterone solution in healthy premenopausal women
- testConditions: female, human, in vivo, 0.75 mg, Baseline corrected AUC 0-230, free testosterone, serum; 0.75 mg sublingual; geometric mean (% CV)
observationType: AUC(0-t) (ng·h/mL)

compoundStructure: C[C@]12CC[C@H]3[C@@H](CCC4=CC(=O)CC[C@@]43C)[C@@H]1CC[C@@H]2O
observationType: AUC(0-t)
unitsSymbol: ng·h/mL
val: 0.0312

###

- experimentSummary: Pharmacokinetics of three single doses of sublingual testosterone solution in healthy premenopausal women
- testConditions: female, human, in vivo, 0.5 mg, Cmax, free testosterone, serum; 0.50 mg sublingual; geometric mean (% CV)

molecule: C[C@]12CC[C@H]3[C@@H](CCC4=CC(=O)CC[C@@]43C)[C@@H]1CC[C@@H]2O [Testosterone, testosterone]
unitsSymbol: ng/mL
Cmax: 0.032

###

- experimentSummary: Pharmacokinetics of three single doses of sublingual testosterone solution in healthy premenopausal women
- testConditions: female, human, in vivo, 0.25 mg, Tmax, total testosterone, serum; 0.25 mg sublingual; mean ± SD

compoundStructure: C[C@]12CC[C@H]3[C@@H](CCC4=CC(=O)CC[C@@]43C)[C@@H]1CC[C@@H]2O
unitsSymbol: min
Tmax: 15.6

###

- experimentSummary: Pharmacokinetics of three single doses of sublingual testosterone solution in healthy premenopausal women
- testConditions: female, human, in vivo, 0.5 mg, t1/2, total testosterone, serum; 0.50 mg sublingual; mean ± SD
- Method: All 16 subjects received each investigational drug dose once in random order. Wash-out between treatments was at least 48 h. Subjects had serial blood samples drawn via an intravenous catheter. Pharmacokinetic parameters were monitored at baseline and (at 2, 4, 6, 8, 10, 20, 30, 60, 90, 120, 180, 230 min) after dosing. Blood samples in the placebo condition were only measured at −5, 10, 60 and 230 min. […] The pharmacokinetic parameters were analyzed using the WinNonlin software (version 5.1). […]

compoundStructure: C[C@]12CC[C@H]3[C@@H](CCC4=CC(=O)CC[C@@]43C)[C@@H]1CC[C@@H]2O
half-life (min): 49.7

###

- experimentSummary: Pharmacokinetics of three single doses of sublingual testosterone solution in healthy premenopausal women
- testConditions: female, human, in vivo, 0.25 mg, Cmax, total testosterone, serum; 0.25 mg sublingual; geometric mean (% CV)

compoundStructure: C[C@]12CC[C@H]3[C@@H](CCC4=CC(=O)CC[C@@]43C)[C@@H]1CC[C@@H]2O
unitsSymbol: ng/mL
Cmax: 3.79

###

- experimentSummary: Pharmacokinetics of three single doses of sublingual testosterone solution in healthy premenopausal women
- testConditions: female, human, in vivo, 0.5 mg, Cmax, total testosterone, serum; 0.50 mg sublingual; geometric mean (% CV)

compoundStructure: C[C@]12CC[C@H]3[C@@H](CCC4=CC(=O)CC[C@@]43C)[C@@H]1CC[C@@H]2O
Cmax (ng/mL): 5.31

###

- experimentSummary: Pharmacokinetics of three single doses of sublingual testosterone solution in healthy premenopausal women
- testConditions: female, human, in vivo, 0.5 mg, Tmax, total testosterone, serum; 0.50 mg sublingual; mean ± SD

compoundStructure: C[C@]12CC[C@H]3[C@@H](CCC4=CC(=O)CC[C@@]43C)[C@@H]1CC[C@@H]2O
Tmax: 15.1 min

###

- experimentSummary: Pharmacokinetics of three single doses of sublingual testosterone solution in healthy premenopausal women
- testConditions: female, human, in vivo, 0.75 mg
- Description: All 16 subjects received each investigational drug dose once in random order. Wash-out between treatments was at least 48 h. Subjects had serial blood samples drawn via an intravenous catheter. Pharmacokinetic parameters were monitored at baseline and (at 2, 4, 6, 8, 10, 20, 30, 60, 90, 120, 180, 230 min) after dosing. Blood samples in the placebo condition were only measured at −5, 10, 60 and 230 min. […] The pharmacokinetic parameters were analyzed using the WinNonlin software (version 5.1). […]
observationType: bioavailability (%)

compound: C[C@]12CC[C@H]3[C@@H](CCC4=CC(=O)CC[C@@]43C)[C@@H]1CC[C@@H]2O [Testosterone, testosterone]
val: 58

###

- experimentSummary: Clinical cross-over pharmacokinetic study of F1 versus F2 (testosterone and sildenafil citrate) in healthy pre-menopausal women
- testConditions: female, human, plasma, other: sublingual, 0.5 mg

compound: C[C@]12CC[C@H]3[C@@H](CCC4=CC(=O)CC[C@@]43C)[C@@H]1CC[C@@H]2O [Testosterone, testosterone]
half-life: ~37 min

###

- experimentSummary: Pharmacokinetics of three single doses of sublingual testosterone solution in healthy premenopausal women
- testConditions: female, human, in vivo, 0.5 mg
- Experimental: All 16 subjects received each investigational drug dose once in random order. Wash-out between treatments was at least 48 h. Subjects had serial blood samples drawn via an intravenous catheter. Pharmacokinetic parameters were monitored at baseline and (at 2, 4, 6, 8, 10, 20, 30, 60, 90, 120, 180, 230 min) after dosing. Blood samples in the placebo condition were only measured at −5, 10, 60 and 230 min. […] The pharmacokinetic parameters were analyzed using the WinNonlin software (version 5.1). […]

compoundStructure: C[C@]12CC[C@H]3[C@@H](CCC4=CC(=O)CC[C@@]43C)[C@@H]1CC[C@@H]2O
unitsSymbol: %
bioavailability: 69

Provenance of the data: patent US9763884B2
